These entries and their values trace back to PubChem BioAssay (NCI).

Tested on: SW-620 colon
Assay: NCI tumour cell line growth inhibition, 48 h; in the data active means GI50 below about 0.43 µM; inactive means the rest
Classes used: active, inactive

[[record]]
chem_smiles = "O=C1C(Cl)=C(Nc2ccccc2)C(=O)c2ccccc21"
assayed_target = "SW-620 colon"
category = "inactive"

[[record]]
chem_smiles = "Cn1c(/C(C#N)=C/c2ccc3ccccc3c2)cc2ccccc21"
assayed_target = "SW-620 colon"
category = "active"

[[record]]
chem_smiles = "Cc1cc(Nc2nc(SCc3ccc(C(=O)Nc4ccc(F)cc4N)cc3)nn3cccc23)n[nH]1"
assayed_target = "SW-620 colon"
category = "active"

[[record]]
chem_smiles = "O=C(c1ccc2ccccc2c1)c1c(C(F)(F)F)n([O-])c2ccc(Cl)cc2[n+]1=O"
assayed_target = "SW-620 colon"
category = "inactive"

